System: Plasmodium berghei
Assay: Screen against P. berghei liver stage (PbLuc), transformed with Luciferase, at 2uM
Assay type: functional, HepG2
Settings: tested at 2 uM
Screen size: about 68,000 compounds; about 2,700 (4%) showed an effect of 50% or more. This is one part of a sample in which strong results are shown more often than they occur.
measurement.name: INHIBITION (%)
Provide only the numeric value, understood in %.

Examples from the recorded data:
compound | INHIBITION, %
NC(=O)C(NC1CCN(CC2CCCCC2)CC1)c1ccc(F)cc1 (stereo not drawn) | 65.76
CC(C)N1CCCC(C(=O)N2CCN(c3nsc4ccccc34)CC2)C1 (stereo not drawn) | -52.08
COc1ccc(-c2cc3nn(CC(N)=O)c(=O)n3c(C)n2)cc1 | 52.74
COc1cc(N2CCC3(CCCN(Cc4ccccn4)C3)C2)ncn1 (stereo not drawn) | -21.32
O=C1C[C@H]2[C@@H](CCN2C(=O)Cc2cccs2)N1Cc1cccnc1 | 55.7
COc1ccc(CNC(C)c2cnn(C)c2)cc1OC1CCCC1 (stereo not drawn) | 51.76
Cc1ccc(CC(=O)Nc2cc(C(C)C)n[nH]2)cn1 | 29.54
O=C(Cc1cccs1)N1CC[C@H]2[C@H]1CCN2Cc1cccnc1 | 7.33

Could you share which INHIBITION value was measured for Cc1ccc(CN(C)C(=O)Cn2nc(-c3ccc(F)cc3)oc2=O)cc1 ?
5.28

Could you share which INHIBITION value was measured for Cc1cc(C2CCCN2C(=O)CN2CCc3ccccc32)on1 (stereo not drawn) ?
18.37

Could you share which INHIBITION value was measured for CC(=O)N1CCC2(CC1)COC(COCc1ccccn1)C2 (stereo not drawn) ?
53.55

* * *

Tested on: Plasmodium berghei
Assay: Screen against P. berghei liver stage (PbLuc), transformed with Luciferase, at 2uM
Type: functional, HepG2
Settings: tested at 2 uM
The whole screen tested about 68,000 compounds, of which about 2,700 (4%) showed an effect of 50% or more. Many of the other results were omitted from the sample, so strong results are more common in it than they were.
measurement.name: INHIBITION
Give the number first and the unit second.

molecule | experimental.system | measurement.name | value
c1cnnc(N2CCCC2CNCc2cccs2)c1 (configuration not stated) | Plasmodium berghei | INHIBITION | 23.86%
COc1cccc(CN2CCc3nc(C(=O)NCC(C)C)sc3CC2)c1 | Plasmodium berghei | INHIBITION | -4.19%
CC(C)(C)C(=O)NCCCn1cncn1 | Plasmodium berghei | INHIBITION | 32.55%
c1cnnc(N2CCCC2CNCc2cscn2)c1 (configuration not stated) | Plasmodium berghei | INHIBITION | 4.19%
COCCN1CCC(NCc2c(F)cccc2F)C1 (configuration not stated) | Plasmodium berghei | INHIBITION | 28.54%

Could you share which INHIBITION value was measured for c1cnnc(N2CCCC2CNCc2ccsc2)c1 (configuration not stated) ?
54.85%

Could you share which INHIBITION value was measured for c1ccc(Cn2ccnc2CNCC2CCCN2c2cccnn2)cc1 (configuration not stated) ?
11.2%

* * *

Test system: Plasmodium berghei
Assay: Screen against P. berghei liver stage (PbLuc), transformed with Luciferase, at 2uM
Format: functional, HepG2
Settings: tested at 2 uM
Hit rate of the full screen: of about 68,000 compounds, about 2,700 (4%) showed an effect of 50% or more. The sample holds strong results, similar compounds and a random draw of the others, so the mix is not that of the screen.
// boundary case: INHIBITION equal to 50% maps to NOT MET; strictly smaller maps to MET

Take a look at these entries with their results.
compound | experimental.system | classification
O=C(COCc1ccco1)Nc1cc(C(F)(F)F)c[nH]c1=O | Plasmodium berghei | NOT MET
Cc1csc(CCCNC(C)CC(=O)Nc2cccc(C)c2C)n1 (centres undefined) | Plasmodium berghei | MET
CS(=O)(=O)NCCNC(=O)NC1(c2ccc(F)cc2)CCCC1 | Plasmodium berghei | NOT MET
CCc1cc(N2CCC(n3cc(C(=O)NC4CC4)nn3)CC2)ncn1 | Plasmodium berghei | NOT MET
CS(=O)(=O)NCCC(=O)NC1(c2ccc(F)cc2)CCCC1 | Plasmodium berghei | MET
O=C(c1c[nH]c(=O)[nH]1)N1CCc2ccccc21 | Plasmodium berghei | MET

Is it true that INHIBITION reported for CCOCC(=O)N1Cc2nccn2CC(CN(C)C)C1 (centres undefined) is less than 50%?
MET

Is it true that INHIBITION reported for CN(Cc1ccccc1F)C(=O)CS(=O)(=O)Cc1ccc(Cl)c(Cl)c1 is less than 50%?
MET

Is it true that INHIBITION reported for Cc1cc(N2CCCC(O)(CN(C)C)CC2)nc(-c2ccccc2)n1 (centres undefined) is less than 50%?
MET

Is it true that INHIBITION reported for Cc1ccccc1CS(=O)(=O)CC(=O)N(C)Cc1ccccc1F is less than 50%?
MET

Is it true that INHIBITION reported for COc1ccc(Cl)cc1CS(=O)(=O)CC(=O)N(C)Cc1ccccc1F is less than 50%?
NOT MET

Is it true that INHIBITION reported for CN(C)CC1(O)CCCN(c2noc(-c3ccccc3)n2)CC1 (centres undefined) is less than 50%?
MET

Is it true that INHIBITION reported for Cc1cc(=O)[nH]c(=O)n1COCCOCc1ccccc1 is less than 50%?
MET

Is it true that INHIBITION reported for CN(Cc1ccco1)C(=O)Nc1cc(C(F)(F)F)c[nH]c1=O is less than 50%?
MET

Is it true that INHIBITION reported for COc1ccc(C)cc1CN1CCn2cccc2C1C (centres undefined) is less than 50%?
MET

Is it true that INHIBITION reported for CC(C)c1noc(CCC(=O)Nc2cc(C(F)(F)F)c[nH]c2=O)n1 is less than 50%?
NOT MET
